Test Details: Water solubility by quantitative 1H NMR of saturated solution
Assay type: physicochemical
Conditions: saturated solution in D2O, heated to 40 °C and sonicated 90 min, cooled to room temperature, quantitative 1HNMR vs Me2SO2

[
  {
    "Compound": "CO[PH](OC)(OC)[Au][S]C1OC(COC(C)=O)C(OC(C)=O)C(OC(C)=O)C1OC(C)=O (stereo not shown) [AuP(OCH3)3SAtg]",
    "Result Unit": "millimolar",
    "Water solubility": 2.76
  },
  {
    "Compound": "CCP(CC)CC.[Au+].[Cl-] [Au(PEt3)Cl]",
    "Result Unit": "millimolar",
    "Water solubility": 0.68
  },
  {
    "Compound": "CC[P](CC)(CC)[Au][I] [Au(PEt3)I]",
    "Result Unit": "millimolar",
    "Water solubility": 0.08
  },
  {
    "Compound": "CC(=O)OC[C@H]1O[C@@H]([S-])[C@H](OC(C)=O)[C@@H](OC(C)=O)[C@@H]1OC(C)=O.CCP(CC)CC.[Au+] [auranofin]",
    "Result Unit": "millimolar",
    "Water solubility": 0.34
  }
]

Data provenance is paper PMC9920260.
